The reported measurements were obtained from patent US20190262327A1.

target: T1, biotinylated synthetic human Amyloid beta 1-42 peptide (human, UniProt P05067 672-713, biotinylated (N-terminal biotin in Example 4)); experiment: SPR (ProteOn); biotinylated peptide on streptavidin chip, scFv in solution
T1 construct: domain: Amyloid beta 1-42 peptide; Numbers 1-42 count on the Amyloid beta peptide, not on APP; also called biotinylated human Amyloid beta 1-42; N-terminal biotin Abeta 1-42
T1 sequence (P05067 672-713 limits assumed): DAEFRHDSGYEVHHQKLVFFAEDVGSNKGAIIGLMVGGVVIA
Quantity kind: kon (M⁻¹ s⁻¹)
Give just the number in M⁻¹ s⁻¹; leave the unit off.

- Binder: "Abet0344 scFv (scFv, V domains shown, not shown: small tags and cut ends, Purified scFv expressed in E. coli) VH: EVQLLESGGGLVQPGGSLSLSCAASGFTFSVYTMWWVRQAPGKGLEWVSVIGGNETRKAYADSVKGRFTISRDNSKNRLYLQMNSLRAEDTAVYYCAREWMDHSRPYYYYGMDVWGQGTLVTVSS VL: QSVLTQPPSVSVSPGQTASITCSGHNLEDKFASWYQQKSGQSPVLVIYRDDKRPSGIPERFSASNSGHTATLTISGTQATDEADYYCATQDNFTRVFGGGTKLTVL"
  Units of measure: "M⁻¹ s⁻¹"
  Measured value: 77500

Inquiry: Name the reported kon value associated with the binder Abet0369 scFv (scFv, V domains shown, not shown: small tags and cut ends, Purified scFv expressed in E. coli) VH: EVQLLESGGGLVQPGGSLRLSCAASSFQISKNTMWWVRRAPGKGLEWVSVIGKDETRFNYADSVKGRFTISRDNSKNTLYLQMNSLRAEDTAVYYCAREWMDHSRPYYYYGMDVWGQGTLVTVSS VL: SYGLTQPPSVSVSPGQTASITCSGRNIGDSWVAWYQQKPGQSPVLVIYRDDKRPSGIPERFSASNSGHTATLTISGTQATDEADYYCSSQDTVTRVFGGGTKLTVL
Reply text: 327000

Inquiry: Name the reported kon value associated with the binder Abet0378 scFv (scFv, V domains shown, not shown: small tags and cut ends) VH: EVQLLESGGGLVQPGGSLRLSCAASGFPFETDIMWWVRQAPGKGLEWVSVIGTNTDNVAYADSVKGRFTISRDNSKNTLYLQMNSLRAEDTAVYYCAREWMDHSRPYYYYGMDVWGQGTLVTVSS VL: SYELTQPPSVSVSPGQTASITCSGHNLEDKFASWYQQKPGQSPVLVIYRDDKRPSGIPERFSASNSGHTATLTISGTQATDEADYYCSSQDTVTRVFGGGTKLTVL
Reply text: 136000
